# Conditions used: in ethanol, 308.15 K
Test readout: solubility (mole fraction)
Provide a numeric answer; units are not to be included.

Quick note, solubility (mole fraction) for O=C1C(CCS(=O)c2ccccc2)C(=O)N(c2ccccc2)N1c1ccccc1 (stereo unspecified) landed at 0.00542

* * *

# Conditions used: in isopropanol, 313.15 K
Test readout: solubility (mole fraction)

solubility (mole fraction) in this record for O=C1C(CCS(=O)c2ccccc2)C(=O)N(c2ccccc2)N1c1ccccc1 (stereo unspecified) : 0.00583

* * *

# Conditions used: in methyl acetate, 308.15 K
Test readout: solubility (mole fraction)
Just the number, please, no unit attached.

Please fill in: solubility (mole fraction) reported for O=C1C(CCS(=O)c2ccccc2)C(=O)N(c2ccccc2)N1c1ccccc1 (stereo unspecified) = 0.0222

Where do the numbers come from? From BigSolDB 2.1.
